From: ChEMBL document CHEMBL5032525

Assay: Cytotoxicity against mouse J774.2 cells assessed as reduction in cell viability measured after 48 hrs by resazurin dye based assay
Conditions: J774.2 cells
Simple rule here: CC50 at 48 h less than 100 µM is Satisfied, otherwise Not satisfied.

C[C@]12CC[C@H]3[C@@H](CC=C4C[C@@H](O)CC[C@@]43CO)[C@@H]1CCC2=O :: Satisfied
C[C@]12CC[C@H]3[C@@H](CC=C4C[C@@H](O[N+](=O)[O-])CC[C@@]43C)[C@@H]1CC[C@@H]2O[N+](=O)[O-] :: Not satisfied
C#C[C@]1(O[N+](=O)[O-])CC[C@H]2[C@@H]3CC=C4C[C@@H](O[N+](=O)[O-])CC[C@]4(CO[N+](=O)[O-])[C@H]3CC[C@@]21C :: Satisfied
C[C@]12CC[C@H](O)CC1=CC[C@@H]1[C@@H]2CC[C@]2(C)C(=O)CC[C@@H]12 :: Not satisfied
C[C@]12CC[C@H](O[N+](=O)[O-])CC1=CC[C@@H]1[C@@H]2CC[C@]2(C)C(=O)CC[C@@H]12 :: Satisfied
C#C[C@]1(O)CC[C@H]2[C@@H]3CC=C4C[C@@H](O[N+](=O)[O-])CC[C@]4(CO[N+](=O)[O-])[C@H]3CC[C@@]21C :: Satisfied
C[C@]12CC[C@H]3[C@@H](CC=C4C[C@@H](O[N+](=O)[O-])CC[C@@]43CO[N+](=O)[O-])[C@@H]1CCC2=O :: Not satisfied

----------
Assay: in vitro
Settings: mouse, J774.2 cells
Description: Selectivity index, ratio of CC50 for mouse J774.2 cells to IC50 for Trypanosoma cruzi MHOM/MX/1994/Ninoa
Value Kind: selectivity ratio

C[C@]12CC[C@H]3[C@@H](CC=C4C[C@@H](O)CC[C@@]43CO)[C@@H]1CCC2=O :: 2.08
C#C[C@]1(O)CC[C@H]2[C@@H]3CC=C4C[C@@H](O[N+](=O)[O-])CC[C@]4(CO[N+](=O)[O-])[C@H]3CC[C@@]21C :: 14.2
C[C@]12CC[C@H](O)CC1=CC[C@@H]1[C@@H]2CC[C@]2(C)C(=O)CC[C@@H]12 :: 3.19
C#C[C@]1(O[N+](=O)[O-])CC[C@H]2[C@@H]3CC=C4C[C@@H](O[N+](=O)[O-])CC[C@]4(CO[N+](=O)[O-])[C@H]3CC[C@@]21C :: 11
C[C@]12CC[C@H]3[C@@H](CC=C4C[C@@H](O[N+](=O)[O-])CC[C@@]43C)[C@@H]1CC[C@@H]2O[N+](=O)[O-] :: 0.44
C[C@]12CC[C@H](O[N+](=O)[O-])CC1=CC[C@@H]1[C@@H]2CC[C@]2(C)C(=O)CC[C@@H]12 :: 0.01
C[C@]12CC[C@H]3[C@@H](CC=C4C[C@@H](O[N+](=O)[O-])CC[C@@]43CO[N+](=O)[O-])[C@@H]1CCC2=O :: 2.68

----------
Assay: in vitro
Conditions: mouse, J774.2 cells
Description: Selectivity index, ratio of CC50 for mouse J774.2 cells to IC50 for Trypanosoma cruzi ITRI/MX/2018/TH
Simple rule here: selectivity ratio less than 0.3 is 1, otherwise -1.

C[C@]12CC[C@H]3[C@@H](CC=C4C[C@@H](O)CC[C@@]43CO)[C@@H]1CCC2=O :: 1
C[C@]12CC[C@H]3[C@@H](CC=C4C[C@@H](O[N+](=O)[O-])CC[C@@]43C)[C@@H]1CC[C@@H]2O[N+](=O)[O-] :: -1
C[C@]12CC[C@H](O[N+](=O)[O-])CC1=CC[C@@H]1[C@@H]2CC[C@]2(C)C(=O)CC[C@@H]12 :: -1
C#C[C@]1(O[N+](=O)[O-])CC[C@H]2[C@@H]3CC=C4C[C@@H](O[N+](=O)[O-])CC[C@]4(CO[N+](=O)[O-])[C@H]3CC[C@@]21C :: 1
C[C@]12CC[C@H](O)CC1=CC[C@@H]1[C@@H]2CC[C@]2(C)C(=O)CC[C@@H]12 :: -1
C#C[C@]1(O)CC[C@H]2[C@@H]3CC=C4C[C@@H](O[N+](=O)[O-])CC[C@]4(CO[N+](=O)[O-])[C@H]3CC[C@@]21C :: 1
